# assayed.system: Cytochrome P450 1A2 (Homo sapiens, UniProt P05177)
# Sequence (P05177 whole entry): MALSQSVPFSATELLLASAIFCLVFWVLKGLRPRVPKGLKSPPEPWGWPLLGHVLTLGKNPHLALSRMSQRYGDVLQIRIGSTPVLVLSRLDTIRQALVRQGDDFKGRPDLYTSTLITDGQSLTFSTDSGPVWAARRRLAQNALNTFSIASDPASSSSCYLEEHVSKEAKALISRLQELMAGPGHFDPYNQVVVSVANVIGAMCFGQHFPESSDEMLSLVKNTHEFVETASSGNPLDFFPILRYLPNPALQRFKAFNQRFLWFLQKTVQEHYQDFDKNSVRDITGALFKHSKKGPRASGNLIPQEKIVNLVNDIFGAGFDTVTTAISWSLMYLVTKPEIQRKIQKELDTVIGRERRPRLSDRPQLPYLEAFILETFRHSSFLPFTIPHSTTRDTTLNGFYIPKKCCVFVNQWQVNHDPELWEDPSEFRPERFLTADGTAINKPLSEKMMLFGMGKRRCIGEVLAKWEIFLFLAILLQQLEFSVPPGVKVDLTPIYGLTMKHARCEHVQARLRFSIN
property.label: IC50

*Q* Which IC50 is reported for this molecule? `CCn1nc(C)cc1C(=O)Nc1nc2cc(C(N)=O)cc(OC)c2n1C/C=C/Cn1c(NC(=O)c2cc(C)nn2CC)nc2cc(C(N)=O)cc(OCCCNC(=O)OC(C)(C)C)c21`
*A* > 100 µM

* * *

RLU listing for selected compounds.
# assayed.system: Stimulator of interferon genes protein (Homo sapiens)
# Sequence (Q86WV6 whole entry): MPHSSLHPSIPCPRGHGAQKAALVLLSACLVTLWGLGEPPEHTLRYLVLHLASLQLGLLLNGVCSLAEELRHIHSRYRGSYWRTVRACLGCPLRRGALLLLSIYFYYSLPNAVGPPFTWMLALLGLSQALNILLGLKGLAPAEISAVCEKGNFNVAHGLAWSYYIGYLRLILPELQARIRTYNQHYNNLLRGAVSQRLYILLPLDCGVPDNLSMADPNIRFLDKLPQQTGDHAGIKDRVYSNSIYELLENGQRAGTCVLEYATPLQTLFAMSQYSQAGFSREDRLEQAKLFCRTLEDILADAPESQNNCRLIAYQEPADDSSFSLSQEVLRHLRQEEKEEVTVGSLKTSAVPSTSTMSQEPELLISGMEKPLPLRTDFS
# experimental.parameters: THP1-Dual, filed as activator, dose 50.0 µM, time 24.0 hrs
Answer using only a numeral; do not append any unit.

Some entries whose results are on file:
CCn1nc(C)cc1C(=O)Nc1nc2cc(C(N)=O)cc(OC)c2n1CCCCNC(=O)OC(C)(C)C :: 2.7
Cc1cc(C(=O)Nc2nc3cc(C(N)=O)ccc3n2CCCCNC(=O)OC(C)(C)C)n(C(C)(C)C)n1 :: 1.1

*Q* // returns reported RLU for input `CCn1nc(C)cc1C(=O)Nc1nc2cc(C(N)=O)ccc2n1CCCCNC(=O)c1cccnc1`
*A* 1

*Q* # lookup: RLU of `CCn1nc(C)cc1C(=O)Nc1nc2cc(C(N)=O)cc(OC)c2n1C/C=C/Cn1c(NC(=O)c2cc(C)nn2CC)nc2cc(C(N)=O)cc(OCCCNC(=O)OC(C)(C)C)c21`
*A* 102

*Q* Give its RLU value. Item: `CCn1nc(C)cc1C(=O)NCCCOc1cc(C(N)=O)cc2nc(NC(=O)c3cc(C)nn3CC)n(C)c12`
*A* 99.1

*Q* Consider the compound shown here: `Cn1cc(C(=O)Nc2nc3cc(C(N)=O)ccc3n2C[C@@H](O)c2ccccc2)c(C(F)(F)F)n1` What is its recorded RLU?
*A* 0.8

*Q* What value of RLU has been recorded for this entry: `CCn1nc(C)cc1C(=O)Nc1nc2cc(C(N)=O)ccc2n1CCCNC(=O)OC(C)(C)C`
*A* 20

* * *

half-life values, listed per item
# assay: Terminal half life in BALB/c mouse at 3 mg/kg, iv by LC-MS/MS analysis
# Assay type: ADME, organism-based
# experimental.parameters: in vivo, read-out: beta t1/2 (converted)
A number alone suffices; assume h.

CCn1nc(C)cc1C(=O)NCCCCn1c(NC(=O)c2cc(C)nn2CC)nc2cc(C(N)=O)ccc21 :: 0.59
CCn1nc(C)cc1C(=O)NCCCOc1cc(C(N)=O)cc2nc(NC(=O)c3cc(C)nn3CC)n(C/C=C/Cn3c(NC(=O)c4cc(C)nn4CC)nc4cc(C(N)=O)cc(OC)c43)c12 :: 1.75

*Q* Suppose we examine the compound `CCn1nc(C)cc1C(=O)Nc1nc2cc(C(N)=O)cc(OC)c2n1C/C=C/Cn1c(NC(=O)c2cc(C)nn2CC)nc2cc(C(N)=O)cc(OCCCNC(=O)OC(C)(C)C)c21` ; what half-life value has been reported?
*A* 10.5

* * *

# assay: AUCinfinity in BALB/c mouse at 3 mg/kg, iv by LC-MS/MS analysis
# Type: ADME, organism-based
# Set-up: time infinity, dose 3 mg/kg, route iv
# experimental.parameters: BALB/c, in vivo
property.label: AUC(0-inf) (ng·h/mL)
Give the value, in units of ng·h/mL, as a plain number.

CCn1nc(C)cc1C(=O)NCCCOc1cc(C(N)=O)cc2nc(NC(=O)c3cc(C)nn3CC)n(C/C=C/Cn3c(NC(=O)c4cc(C)nn4CC)nc4cc(C(N)=O)cc(OC)c43)c12 :: 4300

*Q* // query AUC(0-inf) value for entry `CCn1nc(C)cc1C(=O)NCCCCn1c(NC(=O)c2cc(C)nn2CC)nc2cc(C(N)=O)ccc21`
*A* 320
